The measured values listed here are drawn from patent US8481547B2.

# ASSAY TARGET: recombinant human DPP-1 (Cathepsin C) (Homo sapiens, UniProt P53634)
# Sequence (P53634 25-463): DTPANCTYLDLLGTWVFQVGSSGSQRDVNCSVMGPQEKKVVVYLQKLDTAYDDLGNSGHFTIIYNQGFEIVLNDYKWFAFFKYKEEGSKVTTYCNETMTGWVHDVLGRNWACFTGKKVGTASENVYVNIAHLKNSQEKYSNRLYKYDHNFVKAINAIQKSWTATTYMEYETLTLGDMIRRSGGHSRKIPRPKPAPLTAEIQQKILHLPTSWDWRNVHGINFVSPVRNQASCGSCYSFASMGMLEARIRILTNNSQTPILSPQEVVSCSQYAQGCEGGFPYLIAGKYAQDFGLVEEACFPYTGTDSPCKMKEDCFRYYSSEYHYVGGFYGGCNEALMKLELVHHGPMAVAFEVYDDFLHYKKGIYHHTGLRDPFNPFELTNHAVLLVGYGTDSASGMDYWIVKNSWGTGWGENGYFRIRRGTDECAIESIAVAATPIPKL
# EXPERIMENT DESCRIPTION: DPP-1 Inhibition Assay (In Vitro)
# ASSAY CONTEXT: fluorogenic substrate GR-AMC 10 uM, 0.15 nM DPP-1, pH 7.0, room temperature; average value where tested multiple times
Structures can show the parent of a compound that is named as a salt.
PROPERTY LABEL: IC50 (µM)

[[record]]
compound = "CCCNC(=O)c1ccc2nc(N3CCN(C(=O)[C@@H](N)Cc4cccs4)CC3)sc2c1"
property_label = "IC50"
assay_result = 2.1


1 = CC[C@H](N)C(=O)NCCNc1nc2ccc(OC)cc2s1 [Compound 43, hydrochloride]
2 = C#CC[C@H](N)C(=O)NCCNc1nc2ccccc2s1
3 = CCOc1ccc(NC(=O)c2ccc3nc(N4CCN(C(=O)[C@@H](N)Cc5cccs5)CC4)sc3c2)cc1
Task: List items by IC50 in falling order. Would you mind listing the labels in the order requested?
Result: 1, 2, 3
